# pIC50 listing for each entry below
Molecular target: aggrecanase-1 (Homo sapiens, UniProt O75173)
Sequence (O75173 213-837): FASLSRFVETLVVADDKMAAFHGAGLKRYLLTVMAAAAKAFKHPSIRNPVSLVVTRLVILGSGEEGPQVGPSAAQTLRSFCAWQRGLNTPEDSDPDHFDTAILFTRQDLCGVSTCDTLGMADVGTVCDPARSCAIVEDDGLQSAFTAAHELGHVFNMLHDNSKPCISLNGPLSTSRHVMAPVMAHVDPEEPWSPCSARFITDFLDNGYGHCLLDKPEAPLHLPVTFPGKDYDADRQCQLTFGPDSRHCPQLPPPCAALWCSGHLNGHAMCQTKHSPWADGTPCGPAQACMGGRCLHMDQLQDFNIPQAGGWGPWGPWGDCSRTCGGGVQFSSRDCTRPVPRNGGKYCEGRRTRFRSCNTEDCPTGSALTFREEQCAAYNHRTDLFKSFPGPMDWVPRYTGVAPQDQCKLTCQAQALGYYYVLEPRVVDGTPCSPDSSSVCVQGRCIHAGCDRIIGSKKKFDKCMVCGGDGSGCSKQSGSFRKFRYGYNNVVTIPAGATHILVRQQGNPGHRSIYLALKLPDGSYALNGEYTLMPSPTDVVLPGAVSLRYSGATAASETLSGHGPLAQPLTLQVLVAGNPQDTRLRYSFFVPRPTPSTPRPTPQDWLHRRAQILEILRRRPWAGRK
Assay: Aggrecanase-1 inhibitory action (Particle Assay, GAG release from aggrecan-containing polyacrylamide particles)
Assay type: biochemical
Settings: Experimental Example 1; read-out: IC50 AG1
pIC50: −log10 of the molar value.

Answered cases to consult:
{"columns": ["molecule", "pIC50"],
 "data": [
  ["C[C@]1(c2ccccc2)C[C@@]1(NS(=O)(=O)c1ccc(-c2ccc(Cl)cc2F)s1)C(=O)O [Example 2-406]", "> 7.00"],
  ["CC1[C@H](c2ccccc2)[C@]1(NS(=O)(=O)c1ccc(-c2nc3cc(Cl)ccc3[nH]2)s1)C(=O)O (stereo partly drawn) [Example 2-604]", "> 6.00"],
  ["C[C@]1(c2ccccc2)C[C@@]1(NS(=O)(=O)c1ccc(-c2ccc(Cl)c(F)c2)s1)C(=O)O [Example 2-434]", "> 7.00"],
  ["O=C(OCC1(c2ccccc2)CC1(NS(=O)(=O)c1ccc(-c2cc(C(F)(F)F)on2)s1)C(=O)O)N1CCCCC1 (stereo not drawn) [Example 2-310]", "> 6.00"],
  ["O=C(O)C1(NS(=O)(=O)c2ccc(-c3ccc(Cl)cc3)s2)CC1(COCc1ccccc1)c1ccccc1 (stereo not drawn) [Example 2-356]", "> 6.00"],
  ["CN1CCN(CC2(c3ccccc3)CC2(NS(=O)(=O)c2ccc(-c3cc(C(F)(F)F)on3)s2)C(=O)O)CC1 (stereo not drawn) [Example 2-342]", "> 6.00"],
  ["CC1[C@H](c2ccccc2)[C@]1(NS(=O)(=O)N1CCC(Oc2cccc(Cl)c2)C1)C(=O)O (stereo partly drawn) [Example 2-501]", "≤ 6.00"],
  ["CC1[C@H](c2ccccc2)[C@]1(NS(=O)(=O)c1ccc(-n2cc(CO)cn2)s1)C(=O)O (stereo partly drawn) [Example 2-561]", "> 7.00"]
]}

Then this molecule:
Q: Fill blank: measured pIC50 of the molecule COc1cc2c(cc1OC)CN(S(=O)(=O)N[C@@]1(C(=O)O)C(C)[C@@H]1c1ccccc1)CC2 (stereo partly drawn) [Example 2-528] is ____.
Ans: ≤ 6.00

Provenance of the data: patent US20080261994A1
